Please provide measured normalized growth for the entries that follow.
experiment: chemical genetic growth profiling, strain panel (AID 1159580);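 further: tested at 20 µM; growth read once vehicle control cultures reached saturation at 30 °C; 1 = growth at the plate median or of vehicle wells; lower values mean less growth of the strain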; details: S. cerevisiae deletion strains, growth OD, locus YPL106C, strain sse1, active compounds read low
Hit rate of the full screen: of about 5,500 compounds, about 2,000 (36%) were called active. Not shown: some 18% with an inconclusive outcome. The list shows a part of the results.
Respond numerically, and do not add a unit to the figure.

Please give the measured normalized growth for this molecule: CN1CCc2cc3c(cc2C1O)OCO3 (stereo not given) 0.994

Please give the measured normalized growth for this molecule: `COc1ccc(-c2coc3c(O)c(OC)ccc3c2=O)cc1` 0.903

Please give the measured normalized growth for this molecule: `CC(=O)CC(=O)CCC(=O)O` 1.02

Please give the measured normalized growth for this molecule: CC(=O)O[C@H]1C(=O)[C@@]2(C)C([C@H](OC(=O)c3ccccc3)[C@]3(O)C[C@H](O)C(C)=C1C3(C)C)[C@]1(OC(C)=O)CO[C@@H]1C[C@@H]2O (stereo not given in full) 0.987

Please give the measured normalized growth for this molecule: `C[CH2][Hg][S]c1ccccc1C(=O)O` 0.0983

Please give the measured normalized growth for this molecule: `CCN(CC)C(=S)SSC(=S)N(CC)CC` 0.103

Please give the measured normalized growth for this molecule: CCCCCC(C)N (stereo not given) 1.03

Please give the measured normalized growth for this molecule: `CC(=O)OCC(CCn1cnc2cnc(N)nc21)COC(C)=O` 0.973

Please give the measured normalized growth for this molecule: `Cc1c(N(C)C)c(=O)n(-c2ccccc2)n1C` 0.974

Please give the measured normalized growth for this molecule: `Cc1cc(OC(=O)N2CCCCC2)c(C(C)C)cc1[N+](C)(C)C` 1.01

Please give the measured normalized growth for this molecule: `CC(C)[N+](C)(CCOC(=O)C1c2ccccc2Oc2ccccc21)C(C)C` 1.01

Please give the measured normalized growth for this molecule: COC1C(O)C(O)C(O)[C@@H](O)C1O (stereo not given in full) 0.949

Please give the measured normalized growth for this molecule: `COc1ccc2c(c1)OC[C@@H](Cc1ccc(OC)c(OC)c1)[C@H]2O` 1.03

Please give the measured normalized growth for this molecule: O=C1CC(c2ccc(O)c(O)c2)Oc2cc(O)cc(O)c21 (stereo not given) 0.993

Please give the measured normalized growth for this molecule: CCCCCC(=O)O[C@]1(C(C)=O)CCC2C3CCC4=CC(=O)CC[C@]4(C)C3CC[C@@]21C (stereo not given in full) 0.986

Please give the measured normalized growth for this molecule: `CC(C)N(C(=O)CCl)c1ccccc1` 1.14

Please give the measured normalized growth for this molecule: CN1C2CC3C[C@H]1C(O3)C2O (stereo not given in full) 0.995

Please give the measured normalized growth for this molecule: `COC(=O)COc1cc(Cl)c(Cl)cc1Cl` 0.957

Please give the measured normalized growth for this molecule: `NC(=O)N1c2ccccc2CC(=O)c2ccccc21` 1.01

Please give the measured normalized growth for this molecule: NC[C@@H]1O[C@H](O[C@@H]2[C@@H](CO)OC(O[C@@H]3[C@@H](O)[C@H](N)C[C@H](N)[C@H]3OC3O[C@H](CN)[C@@H](O)[C@H](O)[C@H]3N)[C@@H]2O)[C@H](N)[C@@H](O)[C@@H]1O (stereo not given in full) 1.01

Please give the measured normalized growth for this molecule: `COc1ccc2cc1Oc1ccc(cc1)C[C@H]1c3cc(c(OC)cc3CCN1C)Oc1c(OC)c(OC)cc3c1[C@H](C2)N(C)CC3` 0.984

Please give the measured normalized growth for this molecule: COC(=O)[C@@H]1C(O)CC[C@H]2CN3CCc4c([nH]c5ccccc45)[C@@H]3C[C@@H]21 (stereo not given in full) 1

Please give the measured normalized growth for this molecule: `O=C1C[C@@H](c2ccc(O)cc2)Oc2cc(O)cc(O)c21` 0.957

Please give the measured normalized growth for this molecule: CN1CCCC(n2nc(Cc3ccc(Cl)cc3)c3ccccc3c2=O)CC1 (stereo not given) 1.08

Please give the measured normalized growth for this molecule: `COc1ccc2c(c1)OC[C@@H](Cc1ccc(OC)c(OC)c1)[C@@H]2O` 0.99

Please give the measured normalized growth for this molecule: COc1ccc2c(c1)C1(C)CCC(=O)CC1CC2 (stereo not given) 1.04

Please give the measured normalized growth for this molecule: `OC(CCN1CCCCC1)(c1ccccc1)c1ccccc1` 0.966

Please give the measured normalized growth for this molecule: `CC[C@@H](CO)NCCN[C@@H](CC)CO` 1.03

Please give the measured normalized growth for this molecule: CNC1(C)C2CCC(C2)C1(C)C (stereo not given) 0.979

Please give the measured normalized growth for this molecule: `CCCCCCCCCCCCCCCCOP(=O)([O-])OCC[N+](C)(C)C` 0.0983

Please give the measured normalized growth for this molecule: `Cc1ccc2c(c1)CC[C@H]1CC(=O)CC[C@]21C` 1.03

Please give the measured normalized growth for this molecule: `COc1cccc([C@]2(O)CCCC[C@H]2CN(C)C)c1` 0.916

Please give the measured normalized growth for this molecule: CC(=O)O[C@]1(C(C)=O)CCC2C3C[C@H](C)C4=CC(=O)CC[C@]4(C)C3CC[C@@]21C (stereo not given in full) 0.991

Please give the measured normalized growth for this molecule: `COc1c2c(c(CC=C(C)C)c3oc(=O)c(-c4ccc(O)cc4)c(O)c13)OC(C)(C)C=C2` 0.913

Please give the measured normalized growth for this molecule: `N#Cc1c(Cl)c(Cl)c(Cl)c(C#N)c1Cl` 0.126

Please give the measured normalized growth for this molecule: `O=C(O)c1cc(=O)c2ccc(Cl)cc2[nH]1` 1.06

Please give the measured normalized growth for this molecule: `CC[C@H]1OC(=O)C[C@@H](O)[C@H](C)[C@@H](O[C@@H]2O[C@H](C)[C@@H](O[C@H]3C[C@@](C)(O)[C@@H](O)[C@H](C)O3)[C@H](N(C)C)[C@H]2O)[C@@H](CC=O)C[C@@H](C)C(=O)/C=C/C(C)=C/[C@@H]1CO[C@@H]1O[C@H](C)[C@@H](O)[C@@H](OC)[C@H]1OC` 1

Please give the measured normalized growth for this molecule: COc1cccc2c1CCC1CC(=O)CCC21C (stereo not given) 1

Please give the measured normalized growth for this molecule: `NC(N)=NOCC[C@H](N)C(=O)O` 1.03

Please give the measured normalized growth for this molecule: `O=c1ccc2ccccc2o1` 0.988

Please give the measured normalized growth for this molecule: `O=C(O)COc1cc(Cl)c(Cl)cc1Cl` 0.973

Please give the measured normalized growth for this molecule: `CN=C(NC#N)NCCSCc1nc[nH]c1C` 0.972

Please give the measured normalized growth for this molecule: CCc1ccc(CCOc2ccc(CC3SC(=O)NC3=O)cc2)nc1 (stereo not given) 1.02

Please give the measured normalized growth for this molecule: `COc1ccc2c(c1)[C@@]1(C)CCC(=O)C[C@H]1CC2` 0.928

Please give the measured normalized growth for this molecule: `C/C=C(/C(=C/C)c1ccc(O)cc1)c1ccc(O)cc1` 0.975
